Tested on: IL6 production in RAW 264.7 macrophage cell line
protocol: Mouse IL6 quantification assay (LPS-stimulated macrophages, ELISA)
Type: cell-based
conditions: RAW264.7, RAW 264.7 murine leukemia virus transformed macrophage cell lines, LPS stimulation, read-out: IL-6 % Inhibition at 30 μM
Could you please report measured inhibition at 30 µM for the items listed next?

compound="COc1cccc(CC2CN(C(=O)c3csc4c(O)nc(-c5ccccn5)nc34)CCN2)c1 (stereo not shown) [drawing 2223]" result="1 to 25%"
compound="O=C(NCCc1cncs1)c1csc2nc(-c3ccccn3)nc(N3CCOCC3)c12 [drawing 2176]" result="1 to 25%"
compound="COc1nc(-c2ccccn2)nc(Oc2cccc(C(F)(F)F)c2)c1O [drawing 2392]" result=0%

Now look at this one.
query: Request the reported inhibition at 30 µM associated with C[C@H](NS(=O)(=O)c1ccccc1F)C(=O)Nc1nnc(-c2ccccn2)[nH]1 [drawing 1947]
result: 51 to 75%

---

Could you please report measured inhibition at 20 µM for the items listed next?
experimental_system: KRas Q61H mutant (Homo sapiens (Human), UniProt P01116, Q61H)
Sequence (P01116-2 other isoform, or with tags, fused parts or gaps Q61H): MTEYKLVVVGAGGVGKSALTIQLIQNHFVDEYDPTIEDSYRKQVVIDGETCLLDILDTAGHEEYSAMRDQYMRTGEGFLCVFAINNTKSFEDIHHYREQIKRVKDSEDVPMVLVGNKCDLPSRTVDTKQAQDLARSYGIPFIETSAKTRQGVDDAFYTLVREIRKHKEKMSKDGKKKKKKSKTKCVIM
protocol: Ras GTP binding domain inhibition assay (labeled GTP)
conditions: 20 μM compound; read-out: % Inhibition at 20 μM KRas Q61H

Record inhibition at 20 µM for all entries; do not skip any.
1. COc1ccc(CCNC(=O)c2csc3nc(-c4ccccn4)nc(N4CCS(=O)(=O)CC4)c23)cn1 [drawing 2853]
2. Oc1nc(-c2ccccn2)nc2scc(Br)c12 [drawing 2703]
3. O=C(c1csc2c(O)nc(-c3ccccn3)nc12)N1CCOC(Cc2ccccc2)C1 (stereo not drawn) [drawing 2771]

result:
1. 25 to 50%
2. 76 to 100%
3. 51 to 75%

---

experimental_system: KRas G12D/Q61H double mutant (Homo sapiens (Human), UniProt P01116, G12D/Q61H)
Sequence (P01116-2 other isoform, or with tags, fused parts or gaps G12D/Q61H): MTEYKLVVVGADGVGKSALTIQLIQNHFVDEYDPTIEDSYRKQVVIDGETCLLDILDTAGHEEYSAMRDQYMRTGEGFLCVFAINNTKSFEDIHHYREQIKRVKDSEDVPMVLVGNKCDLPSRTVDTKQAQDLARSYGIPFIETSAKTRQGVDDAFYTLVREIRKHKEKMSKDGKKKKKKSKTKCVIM
protocol: Ras GTP binding domain inhibition assay (labeled GTP)
conditions: 20 μM compound; read-out: % Inhibition at 20 μM KRas G12D Q61H
Could you please report measured inhibition at 20 µM for the items listed next?

molecule="O=C(Nc1nnc(-c2ccccn2)[nH]1)C1CC(=O)N(C2CCCC2)C1 (centres unmarked)" measurement_type="inhibition at 20 µM" result="25 to 50%"

Record inhibition at 20 µM for all entries; do not skip any.
1. Oc1nc(-c2ccccn2)nc2c(-c3ccccc3C(F)F)csc12 [drawing 2883]
2. COCCC(C)Nc1nc(-c2ccccn2)nc2sccc12 (centres unmarked) [drawing 2709]
3. CCc1noc(CN(C)c2nc(-c3ccccn3)nc3c2CCC3)n1
4. Cc1ccc(C)c(OCC(O)CN(c2nccs2)S(=O)(=O)c2ccccc2)c1 (centres unmarked)

result:
1. 51 to 75%
2. 25 to 50%
3. 25 to 50%
4. 1 to 25%

---

Could you please report measured inhibition at 30 µM for the items listed next?
System: IL6 production in RAW 264.7 macrophage cell line
protocol: Mouse IL6 quantification assay (LPS-stimulated macrophages, ELISA)
Format: cell-based
conditions: RAW264.7, RAW 264.7 murine leukemia virus transformed macrophage cell lines, LPS stimulation, read-out: IL-6 % Inhibition at 30 μM

Solved entries (count: 5):
compound="Oc1nc(-c2ccccn2)nc2c(-c3cncc(C(F)(F)F)c3)csc12 [drawing 2304]" experimental_system="IL6 production in RAW 264.7 macrophage cell line" measurement_type="inhibition at 30 µM" result="1 to 25%"
compound="CC(C)Oc1ccc(-c2c(-c3ccccc3)sc3c(O)nc(-c4nccn4C)nc23)cc1F [drawing 2438]" experimental_system="IL6 production in RAW 264.7 macrophage cell line" measurement_type="inhibition at 30 µM" result="1 to 25%"
compound="O=C(Cc1ccc2c(c1)OCCO2)Nc1nnc(-c2ccccn2)[nH]1 [drawing 1997]" experimental_system="IL6 production in RAW 264.7 macrophage cell line" measurement_type="inhibition at 30 µM" result=0%
compound="CN1CCN(c2nc(-c3ccccn3)nc3scc(C(=O)NCCc4cnc(O)nc4)c23)CC1 [drawing 2291]" experimental_system="IL6 production in RAW 264.7 macrophage cell line" measurement_type="inhibition at 30 µM" result="26 to 50%"
compound="Nc1nc(-c2ccccn2)nc2scc(C(=O)O)c12 [drawing 2298]" experimental_system="IL6 production in RAW 264.7 macrophage cell line" measurement_type="inhibition at 30 µM" result="1 to 25%"

Record inhibition at 30 µM for all entries; do not skip any.
1. Cc1cnc(-c2ccccn2)nc1NC(=O)Cc1ccc2cnccc2c1 [drawing 2249]
2. CCOCCNc1nc(-c2nccn2C)nc2sc(-c3ccccc3)c(-c3ccccc3)c12 [drawing 2402]
3. COc1ccccc1C1CN(C(=O)c2csc3c(O)nc(-c4ccccn4)nc23)CCO1 (stereo not drawn) [drawing 2192]
4. CN(CC(=O)Nc1nnc(-c2ccccn2)[nH]1)S(=O)(=O)c1ccccc1 [drawing 2001]
5. CC(C)Oc1cnc(-c2ccccn2)nc1O [drawing 2319]
6. O=C(c1csc2c(O)nc(-c3ccccn3)nc12)N1CCC(c2cccnc2)CC1 [drawing 2109]

result:
1: 76 to 100%; 2: 76 to 100%; 3: 76 to 100%; 4: 1 to 25%; 5: 76 to 100%; 6: 76 to 100%

Record inhibition at 30 µM for all entries; do not skip any.
1. Nc1nc(O)c2scc(C(=O)N3CCC(N4CCOCC4)CC3)c2n1 [drawing 2093]
2. Oc1nc(-c2ccccn2)nc2c(C3CCCC3)csc12 [drawing 2337]
3. Cc1ccc(CC(=O)Nc2nnc(-c3ccccn3)[nH]2)cc1 [drawing 1943]

result:
1: 0%; 2: 51 to 75%; 3: 1 to 25%
